target: His-MBTD1 (UniProt Q05BQ5 1-628); assay: ITC
Sequence (Q05BQ5 whole entry): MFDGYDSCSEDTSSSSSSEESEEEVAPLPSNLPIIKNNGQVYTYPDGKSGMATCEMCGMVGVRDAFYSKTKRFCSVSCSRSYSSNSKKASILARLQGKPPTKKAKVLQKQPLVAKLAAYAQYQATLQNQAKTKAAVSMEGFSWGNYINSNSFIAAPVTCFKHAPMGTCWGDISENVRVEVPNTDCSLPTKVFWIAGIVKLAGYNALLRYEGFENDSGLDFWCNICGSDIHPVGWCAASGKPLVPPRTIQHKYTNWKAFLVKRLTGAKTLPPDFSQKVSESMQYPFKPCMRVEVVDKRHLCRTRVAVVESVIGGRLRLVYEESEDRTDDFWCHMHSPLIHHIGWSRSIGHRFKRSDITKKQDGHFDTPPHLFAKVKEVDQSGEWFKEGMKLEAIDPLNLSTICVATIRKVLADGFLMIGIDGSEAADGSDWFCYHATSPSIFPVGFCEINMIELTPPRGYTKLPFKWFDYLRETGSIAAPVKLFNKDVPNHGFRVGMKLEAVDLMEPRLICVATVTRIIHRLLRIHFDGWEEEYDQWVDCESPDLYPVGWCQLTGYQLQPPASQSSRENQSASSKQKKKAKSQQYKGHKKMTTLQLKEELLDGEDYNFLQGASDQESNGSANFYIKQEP
recorded-endpoint: Kd

Endpoint output: Kd of QGFVSKTLDSASAQFAASALVTSEQLMGF (domain or fragment, UniProt Q9H2F5 644-672, looked up) [GST-EPC1(644-672)] . Value? ~67 nM
